# experimental.details: Human hepatocyte stability
# Type: in vitro ADME
# condition.set: hepatocytes, read-out: Metabolic Stability Human Hepatocytes CLint
readout: hepatocyte CLint
Number first, unit second: that is the form wanted.

Using the record for O=C([C@H]1CCN1S(=O)(=O)c1c(F)c(F)c(F)c(F)c1F)N(Cc1ccc(C2CCCCC2)cn1)c1ccc2c(=O)[nH]ncc2c1 [Compound H182] , report its hepatocyte CLint.
16 µL/min/1e6 cells

----------
# experimental.details: Solubility
# Assay type: physicochemical
# condition.set: aqueous buffer; PBS pH 7.4; read-out: Solubility PBS pH 7.4
readout: solubility (µg/mL)
Express the result in µg/mL but write the number alone.

# compound, readout, quantity.unit, quantitative.result
measured = [
    ("O=C([C@H]1CCN1S(=O)(=O)c1c(F)c(F)c(F)c(F)c1F)N(Cc1ccc(C2CCCCC2)cn1)c1ccc2c(=O)[nH]cnc2c1 [Compound H172]", "solubility", "µg/mL", 6.3),
]

Attention now shifts to the item below.
Using the record for O=C([C@H]1CCN1S(=O)(=O)c1c(F)c(F)c(F)c(F)c1F)N(Cc1ccc(C2CCCCC2)cn1)c1ccc2c(=O)[nH]ncc2c1 [Compound H182] , report its solubility.
3

----------
# target.of.assay: CYP2D6 (Homo sapiens)
# Construct: Eurofins-CEREP (contract research organisation that ran the assay)
# Sequence (P10635 whole entry, species assumed): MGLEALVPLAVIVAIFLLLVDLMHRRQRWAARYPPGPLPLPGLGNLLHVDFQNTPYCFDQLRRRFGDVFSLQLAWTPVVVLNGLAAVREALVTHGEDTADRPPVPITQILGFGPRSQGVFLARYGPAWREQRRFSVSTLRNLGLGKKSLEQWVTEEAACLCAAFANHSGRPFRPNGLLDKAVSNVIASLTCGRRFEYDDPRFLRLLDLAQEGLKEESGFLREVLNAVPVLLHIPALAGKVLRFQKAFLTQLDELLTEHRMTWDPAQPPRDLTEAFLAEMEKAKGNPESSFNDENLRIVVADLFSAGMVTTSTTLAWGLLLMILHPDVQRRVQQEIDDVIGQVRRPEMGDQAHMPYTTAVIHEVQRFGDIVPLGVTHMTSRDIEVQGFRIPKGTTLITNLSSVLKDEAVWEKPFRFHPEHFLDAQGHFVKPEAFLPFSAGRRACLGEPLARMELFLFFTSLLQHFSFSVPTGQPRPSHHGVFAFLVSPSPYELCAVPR
# experimental.details: CYP inhibition, CYP2D6
# Format: in vitro ADME
# condition.set: read-out: CYP Inhibition CYP2D6 % Inh at 10 μM
# Experimental: The in vivo activity of a compound is influenced by its overall bioavailability, which is also driven by parameters, such as solubility, permeability, and metabolism. […] These values are all above the industry cut-off of 60 μg/ml. […] It has CLint in human hepatocytes of 16 μL/min/10^6 cells, which falls into moderate stability range [43].
readout: inhibition at 10 µM (%)
Express the result in % but write the number alone.

Using the record for "O=C([C@H]1CCN1S(=O)(=O)c1c(F)c(F)c(F)c(F)c1F)N(Cc1ccc(C2CCCCC2)cn1)c1ccc2c(=O)[nH]ncc2c1" , report its inhibition at 10 µM.
9

----------
# target.of.assay: CYP3A (Homo sapiens)
# Sequence (P08684 2-503): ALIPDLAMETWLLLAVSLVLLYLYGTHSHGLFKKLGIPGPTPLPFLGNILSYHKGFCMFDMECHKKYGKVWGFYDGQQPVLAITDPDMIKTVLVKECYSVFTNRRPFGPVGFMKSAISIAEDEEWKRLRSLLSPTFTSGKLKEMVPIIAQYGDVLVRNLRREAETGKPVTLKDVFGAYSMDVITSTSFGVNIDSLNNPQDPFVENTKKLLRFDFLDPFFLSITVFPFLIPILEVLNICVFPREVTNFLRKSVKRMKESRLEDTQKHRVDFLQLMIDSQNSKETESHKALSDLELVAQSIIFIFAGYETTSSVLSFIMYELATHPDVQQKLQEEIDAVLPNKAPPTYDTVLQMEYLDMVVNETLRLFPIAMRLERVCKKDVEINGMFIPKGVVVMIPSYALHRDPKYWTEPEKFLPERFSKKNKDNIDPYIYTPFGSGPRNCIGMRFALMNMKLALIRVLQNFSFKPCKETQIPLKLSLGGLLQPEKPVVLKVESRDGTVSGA
# experimental.details: CYP inhibition, CYP3A
# Format: in vitro ADME
# condition.set: probe midazolam; midazolam site; read-out: CYP Inhibition CYP3A (Midazolam) IC50
readout: IC50
Number first, unit second: that is the form wanted.

Using the record for O=C([C@H]1CCN1S(=O)(=O)c1c(F)c(F)c(F)c(F)c1F)N(Cc1ccc(C2CCCCC2)cn1)c1ccc2c(=O)[nH]ncc2c1 [Compound H182] , report its IC50.
6.9 µM
